Item-by-item account of IC50 (nM) Untreated, HUVEC NFkB translocation assay
Measured on: ST2 on human umbilical vein endothelial cells (human) (UniProt Q01638)
Sequence (Q01638 19-556): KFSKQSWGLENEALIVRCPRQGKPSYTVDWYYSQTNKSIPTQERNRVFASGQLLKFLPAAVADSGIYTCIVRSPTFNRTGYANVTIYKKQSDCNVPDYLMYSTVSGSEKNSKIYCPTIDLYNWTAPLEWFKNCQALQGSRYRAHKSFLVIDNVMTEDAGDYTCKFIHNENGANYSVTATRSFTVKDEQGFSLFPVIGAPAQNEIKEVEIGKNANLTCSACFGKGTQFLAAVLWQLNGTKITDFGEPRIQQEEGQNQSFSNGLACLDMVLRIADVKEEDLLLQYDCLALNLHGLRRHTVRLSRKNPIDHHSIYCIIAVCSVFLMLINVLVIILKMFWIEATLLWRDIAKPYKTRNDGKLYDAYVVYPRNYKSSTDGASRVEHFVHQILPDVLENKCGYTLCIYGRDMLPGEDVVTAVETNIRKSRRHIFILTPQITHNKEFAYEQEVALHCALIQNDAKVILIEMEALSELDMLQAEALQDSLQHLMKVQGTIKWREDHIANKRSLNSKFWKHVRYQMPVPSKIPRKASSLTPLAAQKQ
Test details: cell-based or functional assay
Assay endpoint: IC50 (nM) Untreated, HUVEC NFkB translocation assay

Binder	Observed result
IL33-07 (ligand) MHHHHHHHHHHAAGLNDIFEAQKIEWHEAAIEGRSITGISPITEYLASLSTYNDQSITFALEDESYEIYVEDLKKDEKKDKVLLSYYESQHPSNESGDGVDGKMLMVTLSPTKDFWLHANNKEHSVELHKCEKPLPDQAFFVLHNMHSNCVSFESKTDPGVFIGVKDNHLALIKVDSSENLSTENILFKLSET	0.22 nM
IL33-16 (ligand) MHHHHHHHHHHAAGLNDIFEAQKIEWHEAAIEGRSITGISPITEYLASLSTYNDQSITFALEDESYEIYVEDLKKDEKKDKVLLSYYESQHPSNESGDGVDGKMLMVTLSPTKDFWLHANNKEHSVELHKSEKPLPDQAFFVLHNMHSNSVSFESKTDPGVFIGVKDNHLALIKVDSSENLSTENILFKLSET	0.17 nM
